target: PTPN6 (Homo sapiens, UniProt P29350)
Sequence (P29350 whole entry): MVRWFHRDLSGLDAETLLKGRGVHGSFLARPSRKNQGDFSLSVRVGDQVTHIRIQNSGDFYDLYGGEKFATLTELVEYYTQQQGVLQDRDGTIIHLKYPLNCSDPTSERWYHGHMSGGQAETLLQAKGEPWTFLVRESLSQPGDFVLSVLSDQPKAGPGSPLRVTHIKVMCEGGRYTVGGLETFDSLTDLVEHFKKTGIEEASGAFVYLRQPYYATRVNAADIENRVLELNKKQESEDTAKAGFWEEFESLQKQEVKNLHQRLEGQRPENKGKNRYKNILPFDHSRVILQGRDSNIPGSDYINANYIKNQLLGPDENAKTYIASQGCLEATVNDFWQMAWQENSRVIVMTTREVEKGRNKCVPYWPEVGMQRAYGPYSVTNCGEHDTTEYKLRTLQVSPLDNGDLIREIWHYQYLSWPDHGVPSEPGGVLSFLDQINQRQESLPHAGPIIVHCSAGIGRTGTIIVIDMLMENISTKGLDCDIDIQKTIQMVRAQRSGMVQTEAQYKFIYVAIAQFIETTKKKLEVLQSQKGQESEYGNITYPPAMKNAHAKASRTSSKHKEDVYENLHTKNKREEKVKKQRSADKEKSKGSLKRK
Endpoint Name: pKi
pKi here: minus log base 10 of the concentration, concentration in moles per litre.

**Query** // map CCOC(=O)c1cc(O)c(O)c(O)c1 [compound 271, ethyl gallate] to recorded pKi (system: PTPN6 (Homo sapiens, UniProt P29350))
**Result** 5.47

Cited source: paper PMC9105384
